- Tested on: BICR22 (Oral Cavity Carcinoma);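 further: after 72 h of two-drug dosing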
- procedure-text: Bliss excess, mean over the matrix (fraction); higher = more synergy
Listing of entries alongside the reported Bliss excess.

compound	Bliss excess
COc1nnc2ccc(N3CCC(c4ccc(OCCN5CCN(C)C(=O)[C@H]5C)cc4)CC3)nn12 [AZD5153] + C[C@@H]1COCCN1C2=NC(=NC(=C2)C3(CC3)[S@](=N)(=O)C)C4=C5C=CNC5=NC=C4 [AZD6738] (first compound max 1 µM, 7x7, partner max 10 µM)	-0.116
O=C(c1cc(Cc2n[nH]c(=O)c3ccccc23)ccc1F)N1CCN(C(=O)C2CC2)CC1 [Olaparib] + COc1nnc2ccc(N3CCC(c4ccc(OCCN5CCN(C)C(=O)[C@H]5C)cc4)CC3)nn12 [AZD5153] (first compound max 10 µM, 7x7, partner max 1 µM)	-0.0477
Cc1nc(-c2cn3c(n2)-c2ccc(-c4cnn(C(C)(C)C(N)=O)c4)cc2OCC3)n(C(C)C)n1 [Taselisib] + O=C(Nc1ccc2[nH]nc(-c3ccncc3)c2c1)[C@@H]1CCN(CC(=O)N2CCN(c3ccc(-c4ncccn4)cc3)CC2)C1 [SCH772984] (first compound max 10 µM, 7x7, partner max 5 µM)	0.116
Cc1c2c(nn1C)CSCc1cc(n(C)n1)CSc1cc(c3ccccc3c1)OCCCc1c(C(=O)O)n(C)c3c-2c(Cl)ccc13 [AZD5991] + C=CCn1c(=O)c2cnc(Nc3ccc(N4CCN(C)CC4)cc3)nc2n1-c1cccc(C(C)(C)O)n1 [AZD1775] (first compound max 1 µM, partner max 1 µM)	-0.0107
N#Cc1cnc(Nc2cc(NC[C@H]3CNCCO3)c(C(F)(F)F)cn2)cn1 [SRA737] + CCc1c2c(nc3ccc(O)cc13)-c1cc3c(c(=O)n1C2)COC(=O)[C@]3(O)CC [SN-38] (first compound max 10 µM, 7x7, partner max 0.3 µM)	-0.0185
Cc1cc2ncnn2cc1Nc1ncc2c(n1)n(C1CCOCC1)c(=O)n2C [AZD7648] + O=C(c1cc(Cc2n[nH]c(=O)c3ccccc23)ccc1F)N1CCN(C(=O)C2CC2)CC1 [Olaparib] (first compound max 10 µM, 7x7, partner max 10 µM)	-0.0548
CN(CCO)CC[C@H](CSc1ccccc1)Nc1ccc(S(=O)(=O)NC(=O)c2ccc(N3CCC([C@@H](O)c4ccccc4-c4ccc(Cl)cc4)CC3)cc2)cc1S(=O)(=O)C(F)(F)F [AZD4320] + CCN(CCO)CCCOc1ccc2c(Nc3cc(CC(=O)Nc4cccc(F)c4)[nH]n3)ncnc2c1 [AZD2811] (first compound max 1 µM, 7x7, partner max 1 µM)	0.0119
CN(CCO)CC[C@H](CSc1ccccc1)Nc1ccc(S(=O)(=O)NC(=O)c2ccc(N3CCC([C@@H](O)c4ccccc4-c4ccc(Cl)cc4)CC3)cc2)cc1S(=O)(=O)C(F)(F)F [AZD4320] + Cn1cnc2c(F)c(Nc3ccc(Br)cc3Cl)c(C(=O)NOCCO)cc21 [Selumetinib] (first compound max 1 µM, 7x7, partner max 3 µM)	-0.0468

###

- Test system: NCI-H2066 (Squamous Cell Lung Carcinoma)
- procedure-text: combination Emax (second highest fraction inhibited in the dose matrix, 72 h); higher = more inhibition; extreme values may be limits of the assay

molecule	combination Emax
N#Cc1cnc(Nc2cc(NC[C@H]3CNCCO3)c(C(F)(F)F)cn2)cn1 [SRA737] + C=CCn1c(=O)c2cnc(Nc3ccc(N4CCN(C)CC4)cc3)nc2n1-c1cccc(C(C)(C)O)n1 [AZD1775] (first compound max 10 µM, partner max 1 µM)	0.426
CC1(C)CCC(CN2CCN(c3ccc(C(=O)NS(=O)(=O)c4ccc(NCC5CCOCC5)c([N+](=O)[O-])c4)c(Oc4cnc5[nH]ccc5c4)c3)CC2)=C(c2ccc(Cl)cc2)C1 [Venetoclax] + C1CN(CCC1(C(=O)N[C@@H](CCO)C2=CC=C(C=C2)Cl)N)C3=NC=NC4=C3C=CN4 [Capivasertib] (first compound max 1 µM, 7x7, partner max 3 µM)	0.424
C[C@@H](Nc1cc(F)cc(F)c1)c1cc(C(=O)N(C)C)cc2c(=O)cc(N3CCOCC3)oc12 [AZD8186] + C1CN(CCC1(C(=O)N[C@@H](CCO)C2=CC=C(C=C2)Cl)N)C3=NC=NC4=C3C=CN4 [AZD5363] (first compound max 10 µM, 7x7, partner max 10 µM)	0.513
CC(=O)c1c(C)c2cnc(Nc3ccc(N4CCNCC4)cn3)nc2n(C2CCCC2)c1=O [Palbociclib] + Cn1cnc2c(F)c(Nc3ccc(Br)cc3Cl)c(C(=O)NOCCO)cc21 [Selumetinib] (first compound max 10 µM, 7x7, partner max 10 µM)	0.244
CN(C)CCCOc1ccc(-c2ccc3ncc4c(c3c2)n(C2CCOCC2)c(=O)n4C)cn1 [AZD0156] + C[C@@H]1COCCN1C2=NC(=NC(=C2)C3(CC3)[S@](=N)(=O)C)C4=C5C=CNC5=NC=C4 [AZD6738] (first compound max 1 µM, 7x7, partner max 10 µM)	0.35
Cc1cc2ncnn2cc1Nc1ncc2c(n1)n(C1CCOCC1)c(=O)n2C [AZD7648] + C=CCn1c(=O)c2cnc(Nc3ccc(N4CCN(C)CC4)cc3)nc2n1-c1cccc(C(C)(C)O)n1 [AZD1775] (first compound max 10 µM, partner max 1 µM)	0.339
Cc1c2c(nn1C)CSCc1cc(n(C)n1)CSc1cc(c3ccccc3c1)OCCCc1c(C(=O)O)n(C)c3c-2c(Cl)ccc13 [AZD5991] + C[C@@H](Nc1cc(F)cc(F)c1)c1cc(C(=O)N(C)C)cc2c(=O)cc(N3CCOCC3)oc12 [AZD8186] (first compound max 1 µM, 7x7, partner max 3 µM)	0.343
